test system: primary rat microglia; assay: Cell toxicity (dead cells, size <150 μm2) in LPS assay; conditions: primary HTS, 10 μM, LPS assay, dead cells size <150 μm2
Counter-ions that a name gives are not always drawn.
experimentalReadout: LPS % cell toxicity (%)
API: value field is a number in %; no unit string.

As a guide, the following entries are already answered.
>  <molecule>
O=C1CCO1

>  <LPS % cell toxicity / %>
0

$$$$
>  <molecule>
CCCNC(=O)NS(=O)(=O)c1ccc(Cl)cc1 [Chlorpropamide]

>  <LPS % cell toxicity / %>
1

$$$$
>  <molecule>
CO/N=C(\C(=O)N[C@@H]1C(=O)N2C(C(=O)O)=C(C[N+]3(C)CCCC3)CS[C@H]12)c1csc(N)n1 [Cefepime Hydrochloride]

>  <LPS % cell toxicity / %>
0

$$$$

GET /values?readout=LPS % cell toxicity&item= O=C(NCc1ccccc1)OCCO [Buramate]
0

Also C[N+](C)(CCOc1ccccc1)Cc1ccccc1.O=C([O-])c1cc2ccccc2cc1O [Bephenium Hydroxynapthoate] ?
0

Also `N[C@@H](C(=O)N[C@@H]1C(=O)N2C(C(=O)O)=C(Cl)CS[C@H]12)c1ccccc1` ?
0

* * *

tested on: primary rat microglia; assay: Cell toxicity (dead cells, size <150 μm2) in coated fibrin (cFib) assay; details: read-out: Cell Toxicity IC50 (uM) [cFib assay]; cFib assay
experimentalReadout: IC50

As a guide, the following entries are already answered.
>  <compound>
CC(=O)[C@@]12O[C@](C)(c3ccccc3)O[C@@H]1C[C@H]1[C@@H]3CCC4=CC(=O)CC[C@]4(C)[C@H]3CC[C@@]12C [Algestone acetophenide, reference compound]

>  <experimentalValue>
> 20 µM

$$$$
>  <compound>
CCC(Cc1c(I)cc(I)c(N)c1I)C(=O)O (stereo not drawn) [lopanic Acid]

>  <experimentalValue>
> 20 µM

$$$$

// moving on: another record for IC50
GET /values?readout=IC50&item= COc1cc2c(cc1O)CC[C@@H]1[C@@H]2CC[C@]2(C)[C@@H](O)CC[C@@H]12 [2-methoxyestradiol, reference compound]
> 20 µM

* * *

test system: fibrin- and LPS-induced microglia activation; experiment: cells; assay type: cell-based, rat; conditions: quadrant by fibrin and LPS inhibition in HTS of 1907 compounds
Structures can show the parent of a compound that is named as a salt.
experimentalReadout: Quadrant (FIG. 5b)

As a guide, the following entries are already answered.
>  <compound>
N=C(N)N/N=C/c1c(Cl)cccc1Cl

>  <Quadrant (FIG. 5b)>
Q4

$$$$
>  <compound>
CC(CCc1ccc(O)cc1)NCC(O)c1ccc(O)cc1 (stereo not drawn) [Ractopamine hydrochloride, reference compound]

>  <Quadrant (FIG. 5b)>
Q3

$$$$
>  <compound>
C[C@@H]1C[C@@H]([C@H](O)CC2CC(=O)NC(=O)C2)C(=O)[C@@H](C)C1 [Cycloheximide]

>  <Quadrant (FIG. 5b)>
Q2

$$$$
>  <compound>
CCC(=O)O[C@]1(C(=O)SCF)[C@H](C)C[C@H]2[C@@H]3C[C@H](F)C4=CC(=O)C=C[C@]4(C)[C@@]3(F)[C@@H](O)C[C@@]21C [Fluticasone Propionate]

>  <Quadrant (FIG. 5b)>
Q2

$$$$
>  <compound>
O=c1[nH]c(=O)n([C@H]2C[C@H](O)[C@@H](CO)O2)cc1F

>  <Quadrant (FIG. 5b)>
Q4

$$$$
>  <compound>
Oc1noc2c1CCNC2

>  <Quadrant (FIG. 5b)>
Q4

$$$$

GET /values?readout=Quadrant (FIG. 5b)&item= CCN[C@@H]1C[C@H](N)[C@@H](O[C@H]2OC(CN)=CC[C@H]2N)[C@H](O)[C@H]1O[C@H]1OC[C@](C)(O)[C@H](NC)[C@H]1O.CCN[C@@H]1C[C@H](N)[C@@H](O[C@H]2OC(CN)=CC[C@H]2N)[C@H](O)[C@H]1O[C@H]1OC[C@](C)(O)[C@H](NC)[C@H]1O.O=S(=O)(O)O.O=S(=O)(O)O.O=S(=O)(O)O.O=S(=O)(O)O.O=S(=O)(O)O [Netilmicin Sulfate]
Q4

Also `Clc1cc(Cl)c(OCC#CI)cc1Cl` ?
Q2

Also CN(C)[C@@H]1C(O)=C(C(N)=O)C(=O)[C@@]2(O)C(O)=C3C(=O)c4c(O)ccc(Cl)c4[C@@H](O)[C@H]3C[C@@H]12 [Demeclocycline hydrochloride, reference compound] ?
Q3

Also CC[n+]1c(-c2ccccc2)c2cc(N)ccc2c2ccc(N)cc21 [Homidium Bromide] ?
Q2

Also O=C(OCC(O)CO)c1ccccc1Nc1ccnc2cc(Cl)ccc12 (stereo not drawn) ?
Q4

Also COc1ccc2c(c1OC)C(=O)O[C@@H]2[C@H]1c2c(cc3c(c2OC)OCO3)CCN1C [Noscapine Hydrochloride] ?
Q4

Also O=C(c1ccccc1)c1ccc2n1CCC2C(=O)O (stereo not drawn) ?
Q4

Also CCC(Cc1c(I)cc(I)c(N)c1I)C(=O)O (stereo not drawn) [Iopanic acid, reference compound] ?
Q3

Also CC(C)CCCC(C)NC(C)C (stereo not drawn) ?
Q4

* * *

Documented Fibrin % cell toxicity across a set of compounds
tested on: primary rat microglia; experiment: Cell toxicity (dead cells, size <150 μm2) in coated fibrin (cFib) assay; settings: primary HTS, 10 μM, fibrin assay, dead cells size <150 μm2;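 for Fibrin % cell toxicity: share of dead cells sized under 150 µm2 at 10 µM in fibrin-stimulated microglia HTS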
API: value field is a number in %; no unit string.

As a guide, the following entries are already answered.
>  <compound>
C=C[C@H]1C[N@@]2CC[C@H]1C[C@@H]2[C@@H](O)c1ccnc2ccccc12 [Cinchonine]

>  <experimentalValue>
1

$$$$
>  <compound>
NC(=O)c1cc[n+](CC2=C(C(=O)[O-])N3C(=O)[C@@H](NC(=O)Cc4cccs4)[C@H]3SC2)cc1 [Cefalonium]

>  <experimentalValue>
1

$$$$
>  <compound>
N[C@@H](C(=O)N[C@@H]1C(=O)N2C(C(=O)O)=C(Cl)CS[C@H]12)c1ccccc1 [Cefaclor]

>  <experimentalValue>
1

$$$$

GET /values?readout=Fibrin % cell toxicity&item= CC(C)(O/N=C(\C(=O)N[C@@H]1C(=O)N2C(C(=O)[O-])=C(C[n+]3ccccc3)CS[C@H]12)c1csc(N)n1)C(=O)O [Ceftazidime]
1

Also CC(C)(C)CC(C)(C)c1ccc(O)c(Cc2ccc(Cl)cc2Cl)c1 [Clofoctol] ?
0

Also COc1cc(/C=C/C(N)=O)cc(OC)c1OC [Cintriamide] ?
1

Also NC(=O)c1cc[n+](CC2=C(C(=O)O)N3C(=O)[C@@H](NC(=O)[C@@H](c4ccccc4)S(=O)(=O)[O-])[C@H]3SC2)cc1 [Cefsulodin Sodium] ?
0

* * *

system: primary rat microglia; details: rat
experimentalReadout: LPS % cell toxicity (%)
API: value field is a number in %; no unit string.

As a guide, the following entries are already answered.
>  <compound>
CC1CC(OC(=O)c2ccccc2O)CC(C)(C)C1 (stereo not shown) [Homosalate]

>  <experimentalValue>
1

$$$$
>  <compound>
OCC(O)CN1CCN(c2ccccc2)CC1 (stereo not shown) [Dropropizine]

>  <experimentalValue>
0

$$$$
>  <compound>
Nc1nc(=O)n([C@@H]2CS[C@H](CO)O2)cc1F [Emtricitabine]

>  <experimentalValue>
1

$$$$
>  <compound>
O=C1CN=C(c2ccccc2)c2cc([N+](=O)[O-])ccc2N1 [Nitrazepam]

>  <experimentalValue>
0

$$$$
>  <compound>
CCN(CC)CCCC(C)Nc1ccnc2cc(Cl)ccc12 (stereo not shown) [Chloroquine]

>  <experimentalValue>
0

$$$$
>  <compound>
O=c1n(CCCN2CCN(c3cccc(Cl)c3)CC2)nc2ccccn12 [Trazodone]

>  <experimentalValue>
0

$$$$
>  <compound>
O=C(O)CCCO [Sodium Oxybate]

>  <experimentalValue>
0

$$$$
>  <compound>
CC(C)COCC(CN(Cc1ccccc1)c1ccccc1)N1CCCC1 (stereo not shown) [Bepridil]

>  <experimentalValue>
0

$$$$
>  <compound>
CC(=O)OCC(CCn1cnc2cnc(N)nc21)COC(C)=O [Famciclovir]

>  <experimentalValue>
1

$$$$

// moving on: another record for LPS % cell toxicity
GET /values?readout=LPS % cell toxicity&item= Cc1c(N(C)C)c(=O)n(-c2ccccc2)n1C [Aminophenazone]
1

* * *

system: fibrin-induced microglia activation; test: Image-based assay of fibrin-induced microglia activation (HTS and dose response); format: cell-based, rat; details: Rattus norvegicus, Microglia, primary microglia HTS, fibrin stimulation; increased cell size (>800 μm^2) as marker of activation; read-out: Fibrin % inhibition
Kindly return YES if reported inhibition at 10 µM is no lower than 60%; return NO if it is lower.

>  <compound>
C[C@H]1C[C@@H]2[C@H]([C@@H](O)C[C@@]3(C)[C@H]2CC[C@]3(O)C(=O)CO)[C@@]2(C)C=CC(=O)C=C12 [Methylprednisolone, reference compound]

>  <assignedClass>
YES

$$$$
>  <compound>
Cc1cccc(C)c1NC(=O)CN1CCCC1=O

>  <assignedClass>
NO

$$$$
>  <compound>
CC(=O)OCC(=O)[C@@]1(O)[C@H](OC(C)=O)C[C@H]2[C@@H]3CCC4=CC(=O)C=C[C@]4(C)[C@@]3(F)[C@@H](O)C[C@@]21C [Triamcinolone diacetate, reference compound]

>  <assignedClass>
YES

$$$$
>  <compound>
CCn1nc(C(=O)O)c(=O)c2cc3c(cc21)OCO3

>  <assignedClass>
YES

$$$$

Note: attention shifts to another entry.
Decide: is the reported value of inhibition at 10 µM for `CCCCCCCCCCC[C@@H](C[C@@H]1OC(=O)[C@H]1CCCCCC)OC(=O)[C@H](CC(C)C)NC=O` equal to or greater than 60%?
NO
